The entries below are paired with their reported IC50.
# target or system: JAK2 (Homo sapiens)
# Construct: 5 μl of catalytic domain recombinant Kinase enzyme+Tyr peptide substrate (Invitrogen, CA)
# experiment notes: Z'-LYTE kinase assay JAK2
Where a name gives a salt, the structure may show the parent alone.

// below: answered compounds
C[N+]1(C)CCC(c2ccc(Nc3cc(NCc4cccc(F)c4)c(C(N)=O)cn3)cc2)CC1 [Example 78, formate]; 10 to 100 nM
COc1cc(Nc2cc(NC[C@H]3CCCN(C(C)=O)C3)c(C(N)=O)cn2)ccc1C(=O)N(C)C; 100 to 1000 nM
COc1ccc(Nc2cc(N[C@H]3CCCN(C(C)=O)C3)c(C(N)=O)cn2)cc1; > 1000 nM

If you can, please state the reported IC50 value of CCC(=O)N1CCC(c2ccc(Nc3cc(NC4CCCC4)c(C(N)=O)cn3)cc2)CC1 .
100 to 1000 nM

Now this one: CN(C)C(=O)c1ccc(Nc2cc(NCc3ccccc3)c(C(N)=O)cn2)cc1Cl
100 to 1000 nM

Same again, this time with Cc1cc(Nc2cc(NCc3ccccc3)c(C(N)=O)cn2)ccc1C(=O)NCCO
100 to 1000 nM

And what about the compound CC(=O)N1CCN(c2ccc(Nc3ncc(C(N)=O)c(NCc4cccc(F)c4)c3Cl)cc2)CC1 ?
> 1000 nM

Similarly, CC(=O)N1CCN(c2ccc(Nc3cc(N[C@H]4CC[C@@H](O)CC4)c(C(N)=O)cn3)cc2)CC1 ?
100 to 1000 nM

* * *

# target or system: JAK2 (Homo sapiens)
# Construct: 5 μl of catalytic domain recombinant Kinase enzyme+Tyr peptide substrate (Invitrogen, CA)
# experiment notes: Z'-LYTE kinase assay JAK2
metric name: IC50

COc1ccc(Nc2cc(NCc3cccc4ccn(C)c34)c(C(N)=O)cn2)cc1; > 1000 nM
CCC(=O)N1CCC(c2ccc(Nc3cc(NCc4ccccc4F)c(C(N)=O)cn3)cc2)CC1; 100 to 1000 nM
C[C@H](Nc1cc(Nc2ccc(C3CCOCC3)cc2)ncc1C(N)=O)C(C)(C)C; > 1000 nM

Let us examine a further case.
Please look up its IC50: Cn1ccnc1CNc1cc(Nc2ccc(C3CCOCC3)cc2)ncc1C(N)=O
100 to 1000 nM

* * *

# System: JAK1/3 signaling to STAT6 in Ramos B cells
# experiment notes: IL4 stimulation of JAK1/3 signaling to STAT6 in Ramos B cells (pSTAT6 Y641, FACS)
# Type: cell-based
# applied conditions: Homo sapiens, 1.0 uM compound, read-out: IL-4/STAT6 in Ramos Percent Inhibition at 1.0 uM
metric name: inhibition at 1 µM (%)
Give the number; % is assumed, so skip it.

Which measured inhibition at 1 µM value corresponds to NC(=O)c1cnc(Nc2cccc(OCCN3CCOCC3)c2)cc1NCc1cccc(F)c1 ?
48

Another compound to look at: NC(=O)c1cnc(Nc2ccc(N3CCCCC3)cc2)cc1N[C@H](CO)c1ccccc1
26

And what about the compound NC(=O)c1cnc(Nc2ccc(N3CCCCC3=O)cc2)cc1NCc1ccccc1F ?
37

* * *

# target or system: JAK3 (Homo sapiens, UniProt P52333)
# Construct: 5 μl of catalytic domain recombinant Kinase enzyme+Tyr peptide substrate (Invitrogen, CA)
# Sequence (P52333 822-1111 limits assumed): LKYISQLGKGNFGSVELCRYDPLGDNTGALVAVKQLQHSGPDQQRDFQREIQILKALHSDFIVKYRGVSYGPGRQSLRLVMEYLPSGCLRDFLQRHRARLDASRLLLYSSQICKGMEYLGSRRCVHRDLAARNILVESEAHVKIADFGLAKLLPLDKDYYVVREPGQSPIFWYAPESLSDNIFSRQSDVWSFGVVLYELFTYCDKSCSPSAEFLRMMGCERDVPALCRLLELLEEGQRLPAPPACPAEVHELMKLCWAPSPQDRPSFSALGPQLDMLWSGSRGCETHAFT
# experiment notes: Z'-LYTE kinase assay JAK3
metric name: IC50

Quick one: IC50 for NC(=O)c1cnc(Nc2ccc(OC(F)(F)F)cc2)cc1NCc1cncc(F)c1 ?
100 to 1000 nM

Same again, this time with NC(=O)c1cnc(Nc2ccc3cnccc3c2)cc1NCc1ccccc1
10 to 100 nM

Record: CC(=O)N1CCN(c2cccc(Nc3cc(NC4(c5ccccc5)CC4)c(C(N)=O)cn3)c2)CC1
10 to 100 nM

Do the same for COc1ccc(Nc2cc(NCc3ncccn3)c(C(N)=O)cn2)cc1 please
100 to 1000 nM

Further, for CC(=O)N1CCN(c2ccc(Nc3cc(NCCc4ccccc4)c(C(N)=O)cn3)cc2)CC1 ?
10 to 100 nM

Also need NC(=O)c1cnc(Nc2cccc(C(=O)N3CCC3)c2)cc1NCc1cc(F)ccc1F , thanks.
1 to 10 nM

Here is the next molecule: CCC(=O)N1CCN(c2ccc(Nc3cc(NC4(c5cccc(F)c5F)CC4)c(C(N)=O)cn3)cc2)CC1
1 to 10 nM

Please do the same for CCC(=O)N1CCC(c2ccc(Nc3cc(N[C@H](C)C4CC4)c(C(N)=O)cn3)cc2)CC1 as well.
10 to 100 nM

* * *

# target or system: JAK2 (Homo sapiens, UniProt O60674)
# Construct: 5 μl of catalytic domain recombinant Kinase enzyme+Tyr peptide substrate (Invitrogen, CA)
# Sequence (O60674 849-1124 limits assumed): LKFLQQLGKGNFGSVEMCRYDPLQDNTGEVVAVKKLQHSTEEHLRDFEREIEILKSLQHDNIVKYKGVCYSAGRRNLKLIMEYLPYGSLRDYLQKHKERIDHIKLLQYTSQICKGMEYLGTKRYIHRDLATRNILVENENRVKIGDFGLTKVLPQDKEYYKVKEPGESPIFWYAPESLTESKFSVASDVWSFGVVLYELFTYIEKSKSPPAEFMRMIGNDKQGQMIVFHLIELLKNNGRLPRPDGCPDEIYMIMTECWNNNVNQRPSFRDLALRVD
# experiment notes: Z'-LYTE kinase assay JAK2
pIC50: −log10 of the molar value.
metric name: pIC50

Examples with answers:
CN(C)C(=O)c1cccc(Nc2cc(NCc3ccccc3)c(C(N)=O)cn2)c1 [Example 247]; 6.00 to 7.00
CCC(=O)N1CCC(c2ccc(Nc3cc(NCc4cccc(F)c4)c(C(N)=O)cn3)cc2)CC1 [Example 145]; 7.00 to 8.00

Next compound, pIC50 to be filled in.
What does the record list as pIC50 for NC(=O)c1cnc(Nc2ccc(OCCN3CCCC3)cc2)cc1NCc1ccccc1 [Example 428] ?
6.00 to 7.00

* * *

# target or system: JAK2 (Homo sapiens)
# Construct: 5 μl of catalytic domain recombinant Kinase enzyme+Tyr peptide substrate (Invitrogen, CA)
# experiment notes: Z'-LYTE kinase assay JAK2
metric name: IC50

COc1ccc(Nc2cc(NC[C@@H]3CCCN(C(=O)N(C)C)C3)c(C(N)=O)cn2)cc1 [Example 53]; > 1 µM
COc1ccc(Nc2cc(Nc3ccc(N4CCOCC4)cc3)c(C(N)=O)cn2)cc1 [Example 17]; > 1 µM
NC(=O)c1cnc(Nc2cccc(OCC(=O)N3CCOCC3)c2)cc1NCc1ccccc1 [Example 430]; 0.1 to 1 µM
COc1ccc(Nc2cc(NCc3cccc4cc[nH]c34)c(C(N)=O)cn2)cc1 [Example 282]; > 1 µM
CN(C)C(=O)c1cccc(Nc2cc(NCC3CCCC3)c(C(N)=O)cn2)c1 [Example 95]; 0.1 to 1 µM

Which measured IC50 value corresponds to COc1ccc(Nc2cc(NCc3cccc(F)n3)c(C(N)=O)cn2)cc1 [Example 315] ?
0.1 to 1 µM

Record: COC[C@@H](Nc1cc(Nc2cccc(N3CCOCC3)c2)ncc1C(N)=O)c1ccccc1 [Example 261]
0.1 to 1 µM

Another: COc1cc(Nc2cc(NCc3cccc(F)c3)c(C(N)=O)cn2)ccc1N1CCCC1=O [Example 63]
0.1 to 1 µM

* * *

# target or system: JAK1 (Homo sapiens, UniProt P23458)
# Construct: 5 μl of catalytic domain recombinant Kinase enzyme+Tyr peptide substrate (Invitrogen, CA)
# Sequence (P23458 875-1153 limits assumed): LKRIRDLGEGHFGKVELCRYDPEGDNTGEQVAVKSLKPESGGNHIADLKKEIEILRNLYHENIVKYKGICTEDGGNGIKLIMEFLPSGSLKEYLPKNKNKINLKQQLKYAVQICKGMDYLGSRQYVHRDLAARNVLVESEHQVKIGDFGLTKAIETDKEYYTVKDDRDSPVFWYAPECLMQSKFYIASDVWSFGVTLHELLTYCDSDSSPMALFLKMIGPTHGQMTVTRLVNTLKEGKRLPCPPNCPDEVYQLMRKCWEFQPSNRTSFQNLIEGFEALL
# experiment notes: Z'-LYTE kinase assay JAK1
metric name: IC50

Here are 4 compounds together with their reported answers.
NC(=O)c1cnc(Nc2ccc(C3CCNCC3)cc2)cc1NCc1cccc(F)c1; 0.1 to 1 µM
CCC(=O)N1CCC(c2ccc(Nc3cc(NCc4cccs4)c(C(N)=O)cn3)cc2)CC1; 0.1 to 1 µM
NC(=O)c1cnc(Nc2ccc(C3CCNCC3)cc2)cc1NCc1ccccc1F; 0.1 to 1 µM
CCC(=O)N1CCC(c2ccc(Nc3cc(NCc4cnn(C)c4)c(C(N)=O)cn3)cc2)CC1; > 1 µM

Could you tell me which IC50 is on file for COc1ccc(Nc2cc(NCc3ncccn3)c(C(N)=O)cn2)cc1 ?
> 1 µM

Same for CCC(=O)N1CCC(c2ccc(Nc3cc(NCc4cccnc4)c(C(N)=O)cn3)cc2)CC1
0.1 to 1 µM

Continue with N#CCc1ccc(Nc2cc(NCc3ccccc3)c(C(N)=O)cn2)cc1
0.1 to 1 µM

Would you mind doing NC(=O)c1cnc(Nc2ccc(C(=O)N3CCC3)cc2)cc1NCc1ccccc1 as well?
0.1 to 1 µM

Subsequent entry: CC(=O)N1CC(c2ccc(Nc3cc(NCc4ccccc4)c(C(N)=O)cn3)cc2)C1
0.1 to 1 µM

Quick one: NC(=O)c1cnc(Nc2ccc(S(=O)(=O)N3CCC3)cc2)cc1NCC1CCCC1
> 1 µM

Subsequent entry: CN(C(=O)C1CC1)c1ccc(Nc2cc(NCc3cccc(F)n3)c(C(N)=O)cn2)cc1
0.1 to 1 µM

// repeat for CCC(=O)N(C)c1ccc(Nc2cc(NCc3cccc4ccsc34)c(C(N)=O)cn2)cc1 and report
0.1 to 1 µM

And CS(=O)(=O)N1CCC(CNc2cc(Nc3ccc(C4CCOCC4)cc3)ncc2C(N)=O)CC1 ?
> 1 µM

* * *

# target or system: JAK2 (Homo sapiens)
# Construct: 5 μl of catalytic domain recombinant Kinase enzyme+Tyr peptide substrate (Invitrogen, CA)
# experiment notes: Z'-LYTE kinase assay JAK2
pIC50: −log10 of the molar value.
metric name: pIC50

NC(=O)c1cnc(Nc2ccc(S(=O)(=O)N3CCC3)cc2)cc1NCC1CCCC1; < 6.00

What does the data say about its pIC50? Entry: NC(=O)c1cnc(Nc2ccc(CC(=O)NCC(F)(F)F)cc2)cc1NCc1ccccc1
6.00 to 7.00

Same lookup for CC(=O)N1CCN(c2cccc(N(C(C)=O)c3cc(NC4(c5ccccc5)CC4)c(C(N)=O)cn3)c2)CC1 , please.
< 6.00

Again, but for Cc1cc(Nc2cc(NCc3cccc(F)c3)c(C(N)=O)cn2)ccc1N1CCCC1=O
7.00 to 8.00

Would you mind doing COc1ccc(Nc2cc(NCc3cccc(F)c3F)c(C(N)=O)cn2)cc1 as well?
< 6.00

Repeat with COC[C@@H](Nc1cc(Nc2ccc(C(=O)N3CCC3)cc2)ncc1C(N)=O)c1ccccc1
6.00 to 7.00

Would you kindly repeat that for CS(=O)(=O)N1CCN(c2ccc(Nc3cc(NC4(c5ccccc5)CC4)c(C(N)=O)cn3)cc2)CC1 ?
6.00 to 7.00

Thanks! And CC(=O)Nc1cccc(Nc2nc(NC3CCCC3)c(C(N)=O)cc2F)c1 ?
< 6.00

Data origin: patent US20150353495A1
